target entity: T1, factor XIIIa (Homo sapiens, UniProt P00488)
T1 sequence (P00488 39-732 limits assumed): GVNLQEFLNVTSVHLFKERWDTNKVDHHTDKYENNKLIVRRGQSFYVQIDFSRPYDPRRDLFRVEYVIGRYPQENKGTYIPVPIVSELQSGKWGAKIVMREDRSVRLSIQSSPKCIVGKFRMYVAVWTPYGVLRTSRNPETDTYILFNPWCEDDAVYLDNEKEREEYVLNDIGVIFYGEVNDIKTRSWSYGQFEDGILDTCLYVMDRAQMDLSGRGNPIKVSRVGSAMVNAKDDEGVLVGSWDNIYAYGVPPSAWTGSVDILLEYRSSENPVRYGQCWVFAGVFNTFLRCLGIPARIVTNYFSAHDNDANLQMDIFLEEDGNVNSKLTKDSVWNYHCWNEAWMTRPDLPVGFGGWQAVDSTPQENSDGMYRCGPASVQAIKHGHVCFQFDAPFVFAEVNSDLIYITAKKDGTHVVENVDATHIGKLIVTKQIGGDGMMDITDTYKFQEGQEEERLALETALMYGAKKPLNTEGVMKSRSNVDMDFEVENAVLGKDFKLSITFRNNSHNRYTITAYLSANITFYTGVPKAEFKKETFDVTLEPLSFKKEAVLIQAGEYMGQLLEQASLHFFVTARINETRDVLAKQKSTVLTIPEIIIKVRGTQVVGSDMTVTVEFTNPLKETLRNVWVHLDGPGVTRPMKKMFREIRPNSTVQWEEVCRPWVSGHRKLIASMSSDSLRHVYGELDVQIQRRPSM
method: biochemical
Assay type: biochemical
condition: Table 2; final variant concentration 5.45 μM; recombinant tridegin polypeptide normalized to 100%
Mark Fulfilled for reported Relative inhibitory effect (%) of 90% or greater; mark Not fulfilled for anything smaller.

Worked examples, 4 molecules total:
INPUT: API: above_or_equal(metric=Relative inhibitory effect (%), cutoff=90%) for item G12A: modified tridegin, XnY mutation of SEQ ID No. 1, expressed in Escherichia coli (protein) MKLLPCKEWHQAIPNPRCWCGADLECAQDQYCAFIPQCRPRSELIKPMDDIYQRPVEFPNLPLKPREE
OUTPUT: Fulfilled

INPUT: API: above_or_equal(metric=Relative inhibitory effect (%), cutoff=90%) for item SEQ ID No. 1: recombinant wild-type tridegin polypeptide expressed in and purified from Escherichia coli (protein) MKLLPCKEWHQGIPNPRCWCGADLECAQDQYCAFIPQCRPRSELIKPMDDIYQRPVEFPNLPLKPREE
OUTPUT: Fulfilled

INPUT: API: above_or_equal(metric=Relative inhibitory effect (%), cutoff=90%) for item R39A: modified tridegin, XnY mutation of SEQ ID No. 1, expressed in Escherichia coli (protein) MKLLPCKEWHQGIPNPRCWCGADLECAQDQYCAFIPQCAPRSELIKPMDDIYQRPVEFPNLPLKPREE
OUTPUT: Not fulfilled

INPUT: API: above_or_equal(metric=Relative inhibitory effect (%), cutoff=90%) for item D50A: modified tridegin, XnY mutation of SEQ ID No. 1, expressed in Escherichia coli (protein) MKLLPCKEWHQGIPNPRCWCGADLECAQDQYCAFIPQCRPRSELIKPMDAIYQRPVEFPNLPLKPREE
OUTPUT: Not fulfilled

Continuing:
INPUT: API: above_or_equal(metric=Relative inhibitory effect (%), cutoff=90%) for item H10A: modified tridegin, XnY mutation of SEQ ID No. 1, expressed in Escherichia coli (protein) MKLLPCKEWAQGIPNPRCWCGADLECAQDQYCAFIPQCRPRSELIKPMDDIYQRPVEFPNLPLKPREE
OUTPUT: Not fulfilled

Reference source for all entries: patent US20090226415A1
